- Test system: E. coli ML-35p
- METHOD DESCRIPTION: Kinetics of permeabilization of the inner bacteria membrane (ONPG)
- Type: cell-based, Escherichia coli
- DETAILS: 32 μM peptide
No end group written: not given here.
ASSAY METRIC: Inner membrane, time to 50% of final signal (min)
Give just the number in min; leave the unit off.

• GRFKRFRKKFKKLFKKLSPVIPLLHLG-OH [BMAP-27] = 5

Turning now to a further record.
// lookup Inner membrane, time to 50% of final signal for KRKRKILILIKRK-OH [N1]
32

----------
- System: E. coli ML-35p
- METHOD DESCRIPTION: Kinetics of permeabilization of the outer bacteria membrane (nitrocefin)
- Format: cell-based, Escherichia coli
- DETAILS: 8 μM peptide
No end group written: not given here.
Quick list: Outer membrane, time to 50% of final signal per entry.
A number alone suffices; assume min.

* KRKRKILILIKRK-OH [N1] | 14

We now examine a further substance.
Item KILILIKRK-OH [N4] has what recorded Outer membrane, time to 50% of final signal?
49

Ref: patent US10556926B2
